Assay read-out pKi on human PDE10A2 (Homo sapiens (Human)); records merged from the literature.
Please report pKi as the negative decimal logarithm of the molar concentration, giving only the number.

Consider the reported pKi for these molecules:
Cc1nc(N2CC(c3nc4ccccc4n3CCF)C2)cc(-n2nc(C)nc2C)n1    8.21
Cc1nc(C)n(-c2cc([C@@H]3C[C@H]3c3nc4ccccc4n3C)nc(N3CC(C)(O)C3)n2)n1    8.96
COc1ccc([C@H]2C[C@@H]2COc2cc(NCc3oc(C)nc3C)n3nccc3n2)nc1 (stereo in doubt)    8.89

Given item "COc1ccc([C@H]2C[C@@H]2COc2nc(C)ncc2-c2cnc(O)nc2)nc1" , the value recorded as its pKi is 8.79

Given item "O=C(Nc1ccccc1)N1CCc2nc(-c3cccnc3)nc(NCc3c[nH]c(-c4ccccc4)n3)c2C1" , the value recorded as its pKi is 8.66

Given item Cc1nc([C@@H]2C[C@H]2c2cn3ccc(F)cc3n2)cc(-n2nc(C)nc2C)n1 (relative stereo) , the value recorded as its pKi is 7.89

Given item COc1cccnc1[C@H]1C[C@@H]1COc1cc(NCc2cnn(C)c2)nc(C)n1 (stereo in doubt) , the value recorded as its pKi is 8.44

Given item "COc1ccc(-n2c(CCN3C(=O)c4cccc(OC5CCC5)c4C3=O)nc3ccccc3c2=O)cc1" , the value recorded as its pKi is 9.00

Given item "Cc1ccc([C@H]2C[C@@H]2COc2nc(C)ncc2-c2ccc(=O)n(CCC#N)c2)nc1" , the value recorded as its pKi is 8.67

Given item Cc1nc(C)n(-c2cc([C@H]3C[C@@H]3c3nc4ccccc4n3C)nc(NC(C)C)n2)n1 (relative stereo) , the value recorded as its pKi is 8.72

----------
Assay read-out pKi on human PDE10A2 (Homo sapiens (Human)); records merged from the literature.
pKi: −log10 of the molar value.
Rule: pKi under 8 gives NO, otherwise YES.

These solved cases illustrate the format of a correct answer.
Cc1ccc(CCc2cc(-n3nc(C)nc3C)nc(C)n2)nc1    YES
COc1ccc([C@H]2C[C@@H]2COc2nc(C)ncc2-c2cc(=O)[nH]cc2Cl)nc1    YES
Cc1ccc([C@H]2C[C@@H]2COc2nc(C)ncc2-c2ccc(=O)n(CC(F)F)c2)nc1    YES

Lookup: Tell me whether pKi is at least 8 here: "COCCOc1ccc(-c2cnc(C)nc2OC[C@H]2C[C@@H]2c2ccc(C)cn2)cn1"
Found: YES

Lookup: Tell me whether pKi is at least 8 here: "COc1ccc(Cc2nc(C)nn2-c2cc(/C=C/c3ccc4ncccc4n3)nc(C)n2)cc1OC"
Found: YES

Lookup: Tell me whether pKi is at least 8 here: "CCOc1cc(-c2cnc(C)nc2OC[C@H]2C[C@@H]2c2ccc(OC)cn2)ccn1"
Found: YES

Lookup: Tell me whether pKi is at least 8 here: "Cc1ncc(-c2ccc(C(C)(C)O)nc2)c(OC[C@H]2C[C@@H]2c2ccc(C#N)cn2)n1"
Found: NO

Lookup: Tell me whether pKi is at least 8 here: "CCOc1nc([C@@H]2C[C@H]2c2nc3ccccc3n2C)cc(-n2nc(C)nc2C)n1"
Found: YES

Lookup: Tell me whether pKi is at least 8 here: "COc1ccc([C@H]2C[C@@H]2COc2nc(C)ncc2-c2ccc(=O)n(OC)c2)nc1"
Found: YES

Lookup: Tell me whether pKi is at least 8 here: CCc1nc(C)nn1-c1cc([C@H]2C[C@@H]2c2nc3ccccc3n2C)nc(C)n1 (stereo in doubt)
Found: YES

Lookup: Tell me whether pKi is at least 8 here: "Cc1nc(C)c(CNc2cc(OC[C@H]3C[C@@H]3c3ccccn3)nc(C3CC3)n2)s1"
Found: YES
